- measurement-description: protein stability index of a GFP-peptide fusion (GPS, HEK-293T) (PSI 1-6); higher = more stable;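 further: 24-mer peptide tiles fused after GFP, lentivirally expressed, FACS-sorted into six equal bins by GFP/DsRed ratio, decoded by Illumina sequencing, PSI is the read-weighted mean bin number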
- settings: treatment: DMSO; c terminus: a fixed tail appended
Everything with protein stability index lower than 4 is rule not met; everything else, including exactly 4, is rule met.

biosequence="LAPDFDRWLDESDAEMELRAKEEE [HACD3]" answer_label="rule met"
biosequence="WAAKAPGASSREEPPEEPEQCPVI [SPDEF]" answer_label="rule met"

Q: Would you say CVDVVFYNPDLKKVVEAHKIVLCA [RHOBTB3] shows protein stability index at minimum 4?
A: rule not met

Q: Please tell me: is the sequence GGGSLSGGGGSRSISASSARFVSS [KRT15] at or over 4 in terms of protein stability index?
A: rule met

Q: Can AGGQDMADSMLMQGSRGLTDQAIF [HDAC6] be said to have protein stability index at or above 4?
A: rule not met

----------
- measurement-description: protein stability index of a GFP-peptide fusion (GPS, HEK-293T) (PSI 1-6); higher = more stable
- settings: treatment: MLN4924 1 uM, 8 h; c terminus: a fixed tail appended
Label Not fulfilled if protein stability index falls below 4; label Fulfilled in every other case.

biosequence="LINHKKAEDTEKKDEPSKYNQQQA [CEP70]" answer_label=Fulfilled

Q: Given the entry LESSEELLETANQTLQAMDSEDFP [FSD1] , answer whether its protein stability index meets or surpasses 4.
A: Fulfilled

Q: # bool: protein stability index of IQFIKLFGMAKIDNLLQEMLLGGS [HNF4A] >= 4
A: Not fulfilled

Q: Quick check, protein stability index >= 4? KKTHETLSHAGQKATAAFSNVGTA [TPD52L1]
A: Fulfilled

Q: Please indicate if the recorded protein stability index for VRVNDGGGSHPSRPNSRHTPSFSG [VDR] meets or exceeds 4.
A: Not fulfilled

Q: Does TVILIESTNEITYGLPIMVTLMVA [CLCN6] have a reported protein stability index of at least 4?
A: Not fulfilled

Q: Does LETMARNEVIADINCKGRSKSNLG [OSBPL1A] have a reported protein stability index of at least 4?
A: Fulfilled

Q: Does protein stability index meet or surpass 4 for GWKSMIQSHPHLVAEAFRALASAQ [SPOPL] ?
A: Not fulfilled

Q: protein stability index >= 4 for FNNGEYAEAEALYSAYIRRCACAA [TTC32] ?
A: Not fulfilled

Q: Check this sequence for protein stability index at or above 4: MQAASSKMVSAEISENRKRQWPTK [SDE2]
A: Fulfilled

Q: Decide: protein stability index of SSISSTSNEQLKVTQEPRAKKGRR [ZMYND11] >= 4?
A: Fulfilled

Q: Reported protein stability index at or above 4? DLFGWSQLIYNHITTRVNSEQEHF [ADD1]
A: Not fulfilled

----------
Reported protein stability index is given for each of the following sequences.
- measurement-description: protein stability index of a GFP-peptide fusion (GPS, HEK-293T) (PSI 1-6); higher = more stable
- settings: treatment: MLN4924 1 uM, 8 h; c terminus: a fixed tail appended
Number, no unit, nothing else.

Some sequences with recorded protein stability index:
biosequence="GEYPRWDAWSGSNAYHIERLMSFR [CRYBA1]" reading=2.41
biosequence="ACRANVKSGAIMSALSDTEIQREI [PPFIA4]" reading=3.57
biosequence="NVPPIPVETLVKKKIPIISNAMLV [ACSBG2]" reading=2.38

Could you now look at the following sequence, please?
protein stability index measured on GELRLGKNLYTNEYVAIKLEPMKS [CSNK1G3] = 2.27

----------
- measurement-description: protein stability index of a GFP-peptide fusion (GPS, HEK-293T) (PSI 1-6); higher = more stable
- settings: treatment: MLN4924 1 uM, 8 h; c terminus: a fixed tail appended
parameter: protein stability index
Could you respond with only the numeric value?

Examples with their reported protein stability index follow.
biosequence="SVTLEDVTPKKSPPPKTNLTPGQS [FAN1]" parameter="protein stability index" reading=5.24
biosequence="DEMVIVKDIDMFSMCEHHLVPFVG [GCH1]" parameter="protein stability index" reading=2.64
biosequence="PSLHVVKVLLDCGADPDSRDFDNN [FEM1A]" parameter="protein stability index" reading=3.82

Measured protein stability index of TVQEAATSRRARASKKTAQPWVEV [MFSD9] : 3.1

// sample ARRKLKGAILTTMLATRNFSGGKS [CAMK2A] , its protein stability index was 3.34

According to the records, this sequence GRQERGLPPSMERGYPPPRDSYSS [RBMX] displays protein stability index of 4.71

Data point: RNKESPVFAPVYFPEELHRKAALE [HMOX1] ; protein stability index = 4.15

----------
- measurement-description: protein stability index of a GFP-peptide fusion (GPS, HEK-293T) (PSI 1-6); higher = more stable
- settings: treatment: DMSO; c terminus: a fixed tail appended
parameter: protein stability index
Field format: numeric only.

Examples with their reported protein stability index follow.
biosequence="RKRIRTYLKSCRRMKKNGMEMTRP [NOL4L]" reading=3.28
biosequence="NLSSRWKNWWVRGILTLAMIAFFF [CDS2]" reading=4.15
biosequence="VLLTQIESKKHQVETAFERLQQEL [TRIM15]" reading=2.73
biosequence="QGQPDPAPRPGPPAGTPPPTARHF [MOSPD3]" reading=3.77
biosequence="TKRSTLIISGVSKVPIAQDELALS [C2CD2L]" reading=3.16

Item: TNFEGPPRLKEDQPWMVIEGIRQT [FSD1] | protein stability index: 3.5

Input MAREHAFNIGLPDNIVNCNEFLCT [ZNF277] . Output protein stability index: 2.94

----------
- measurement-description: protein stability index of a GFP-peptide fusion (GPS, HEK-293T) (PSI 1-6); higher = more stable
- settings: treatment: DMSO; c terminus: a fixed tail appended
parameter: protein stability index

biosequence="PNSTFPIDKSMTVVLTFITPMLNP [OR4A15]" reading=2.95
biosequence="SRNFIERNHMENGGDHRYVNNYTN [TRIM29]" reading=3.46
biosequence="GPDTQDLEGQSPPQSLPSTPKAAW [PBXIP1]" reading=5.2
biosequence="LEFRKSMYEEEINETRRKHETRLV [LMNB1]" reading=4.02
biosequence="AEKCLDFLVDMFNDEIEEVRLQSI [INTS4]" reading=2.94
biosequence="QTNSTKNSAAATSPKGTLPPAALE [CAMK2B]" reading=5.32

Consider now this further sequence.
Lab note: SADVVSPSGHSDAQTLAMMLQEQL [PPFIA4] gave protein stability index of 4.54

----------
- measurement-description: protein stability index of a GFP-peptide fusion (GPS, HEK-293T) (PSI 1-6); higher = more stable
- settings: treatment: MLN4924 1 uM, 8 h; c terminus: a fixed tail appended
parameter: protein stability index

Examples with their reported protein stability index follow.
biosequence="SARQGELQKVLLMLVDGIDPNFKM [EHMT1]" reading=2.04
biosequence="IKCETSPPSSPRTLRLEKLGHPAL [PPFIA4]" reading=3.56
biosequence="SFELLVRFFACPSKATFSRNIMNL [KCNA3]" reading=2.96
biosequence="VITLDPQTASRSLVLSEDRKSVRY [TRIM15]" reading=3.64
biosequence="MQPEGLKCRMEESNAERGTAEPFP [CBY2]" reading=4.69
biosequence="LIQHQRIHKGEKPYQCSQCSKSYS [ZSCAN9]" reading=3.26
biosequence="RDSSFLISGGFDRTVAIWDVAEGY [WDR88]" reading=2.86
biosequence="CTRFTDEYQLFEELGKGAFSVVRR [CAMK2D]" reading=2.84
biosequence="MTVGILSNSLAIAILMKAYQRFRQ [PTGFR]" reading=2.2
biosequence="REVRRAQARLLNPSATRAKPGPQD [NOP53]" reading=4.66

Entry PFYPEVELNFISVFWPQLPNGLEA [MMP1] — recorded protein stability index = 2.62

Value of measured protein stability index for the entry LHRESSNFDSIYICPSTFACAQLA [HDAC6] : 2.11

Notebook: HVKMMLSGVCLFAVFIALLPILGH [PTGFR] , protein stability index read as 2.79

// recorded protein stability index for TVPKNDADDESETPEELEEEIPVV [GLT8D2] : 5.53

Record NERMLESYLHAKKYLKPSGNMFPT [CARM1] , field protein stability index: 2.99

----------
- measurement-description: protein stability index of a GFP-peptide fusion (GPS, HEK-293T) (PSI 1-6); higher = more stable
- settings: treatment: MLN4924 1 uM, 8 h; c terminus: a fixed tail appended
parameter: protein stability index
Write the value as a bare number.

Some solved cases for reference:
biosequence="GGEMSPQVETSIEGTIPFSKPVKV [INTS4]" reading=4.76
biosequence="MELLRTITYQPAASTKMCEQALGK [PLK2]" reading=3.06
biosequence="NSLFIDRQKCMAHRTRYPTILQLA [TEKT4]" reading=2.12
biosequence="IPSTQFDAAHPTNVQRLAEPSQML [CTNNB1]" reading=4.34
biosequence="PRLHGAKAILDAEPGPRPALQPSP [TBC1D10A]" reading=4.94

get_value(item= TLGSSFIPGEHFWLLLLTRGLVGV [SPNS1] , readout=protein stability index) returns 3.21

Given item QGLEQFINKIAGHPLAQNERCLHM [SNX12] , the value recorded as its protein stability index is 2.41

In plain terms, ASQPRGPALLFPATRGVPAKRLLD [TRIB1] has a documented protein stability index of 3.9

Form field protein stability index, entry PPPPHPYNPHPGFPELGYSYGGGS [DVL3] : 3.6

The sequence listed as RMGDADYLAAWHRLVLPIAYEFNP [HDAC6] has a reported protein stability index of 2.3
